Values compiled from patent EP3088389A1.

- assay_system: Beta-galactosidase (Homo sapiens, UniProt P16278)
- Construct: endogenous in cells; host or cells: human peripheral blood mononuclear cells (lysate)
- Sequence (P16278 29-677): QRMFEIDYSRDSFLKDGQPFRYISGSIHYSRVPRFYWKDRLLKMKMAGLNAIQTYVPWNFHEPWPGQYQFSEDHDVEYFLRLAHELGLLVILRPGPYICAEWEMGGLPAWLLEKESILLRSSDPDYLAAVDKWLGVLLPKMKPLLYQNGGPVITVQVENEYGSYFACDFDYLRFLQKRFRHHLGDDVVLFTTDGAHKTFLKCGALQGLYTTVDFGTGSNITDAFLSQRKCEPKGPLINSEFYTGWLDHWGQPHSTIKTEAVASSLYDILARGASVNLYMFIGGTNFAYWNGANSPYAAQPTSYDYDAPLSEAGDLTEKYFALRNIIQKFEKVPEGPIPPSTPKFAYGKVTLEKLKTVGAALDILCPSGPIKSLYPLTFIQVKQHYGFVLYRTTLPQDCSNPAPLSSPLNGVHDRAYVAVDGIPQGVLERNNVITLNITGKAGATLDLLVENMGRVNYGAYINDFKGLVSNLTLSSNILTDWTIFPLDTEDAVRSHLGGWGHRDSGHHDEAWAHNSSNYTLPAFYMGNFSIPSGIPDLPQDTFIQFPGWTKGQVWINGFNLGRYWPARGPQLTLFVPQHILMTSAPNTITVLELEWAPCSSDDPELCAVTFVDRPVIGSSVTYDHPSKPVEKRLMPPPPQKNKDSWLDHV
- method_description: Inhibition of wild type beta-galactosidase activity in human peripheral blood mononuclear cell lysate (Example 1)
- Type: biochemical
- condition_parameters: human PBMC lysate, pH 7.3, 2 hours at 37°C
Overview of reported pIC50 across a group of molecules:
For clarity, pIC50 is expressed as the negative log10 of concentration in mol/L.

- OC[C@H]1CNC[C@@H](O)[C@H]1O [4-epi-isofagomine]: 7.15

// moving on: another record for pIC50
The recorded pIC50 for CCCCCCCCCN1CC(O)C(O)C(CO)C1 (stereo not drawn) [N-nonyl-4-epi-isofagomine] is 5.00
